Conditions: 293.15 K; 101.33 kPa; Liquid; Vibrating tube method
reported.endpoint: mass density (kg/m3)
One number for each entry, in kg/m3.

Guide cases for mass density, answers given:
CC(C)CCO [3-methylbutan-1-ol]; 808.4
CC(=O)OC1CCCCC1 [cyclohexyl ethanoate]; 968.4
CCCC(=O)CCC [4-heptanone]; 817.6
Cc1ccccc1 [toluene]; 866.7

Okay, here is my list. What is mass density for each of these?
1. CCOC(C)=O [ethyl acetate]
2. CCCCCCCCN(CCCCCCCC)CCCCCCCC [trioctylamine]
3. CC(=O)C(C)C [3-methyl-2-butanone]

900.1
810.7
804.8

###

Assign refractive index to each entry below.
Assay: refractive index (Na D-line) (dimensionless)
Details: 293.15 K; 101.33 kPa; Liquid; Standard Abbe refractometry
Numbers only.

A selection of reference data follows.
CCCC(=O)O [butanoic acid]; 1.3982
CC(=O)C(C)C [3-methyl-2-butanone]; 1.3884

Hello, I would appreciate it if you could give refractive index for each entry below.
1. COC(=O)c1ccccc1C(=O)OC [dimethyl 1,2-benzenedicarboxylate]
2. CCC(C)=O [butanone]
3. O [water]
4. CCCCCCCC/C=C\CCCCCCCCO [(Z)-9-octadecen-1-ol]
5. CC(C)CCO [3-methylbutan-1-ol]
6. CCOC(C)=O [ethyl acetate]

1: 1.5135; 2: 1.3793; 3: 1.3324; 4: 1.4601; 5: 1.4075; 6: 1.372

###

Details: 298.15 K; 101.33 kPa; Liquid; Vibrating tube method
reported.endpoint: mass density (kg/m3)
One number for each entry, in kg/m3.

CCCCCC [hexane]; 660.4
CCC(C)=O [butanone]; 798.2
COC(C)(C)C [2-methoxy-2-methylpropane]; 734.7

Below are 2 compounds. Give each one its mass density.
1. CC(=O)CC(C)C [4-methylpentan-2-one]
2. CCCC(=O)O [butanoic acid]

1: 796.1; 2: 952.3

###

Test: refractive index (Na D-line) (dimensionless)
Settings: 293.15 K; 101.33 kPa; Liquid; Standard Abbe refractometry
reported.endpoint: refractive index
One number for each entry.

Please review the following examples before continuing.
Cc1ccccc1 [toluene]; 1.496
CCCCCCCCCCO [decan-1-ol]; 1.4374
CC(=O)CC(C)C [4-methylpentan-2-one]; 1.3958
CCCC(=O)CCC [4-heptanone]; 1.4068
CCCCCCCCCO [nonan-1-ol]; 1.4327
CCCCOC(=O)c1ccccc1C(=O)OCCCC [dibutyl phthalate]; 1.4909

Please give the documented refractive index of CC(=O)OC1CCCCC1 [cyclohexyl ethanoate]
1.4421

###

Conditions: 293.15 K; 101.33 kPa; Liquid; Vibrating tube method
Answer each item with its documented mass density.
One number for each entry, in kg/m3.

O; 999.9
COC(=O)c1ccccc1C(=O)OC [dimethyl 1,2-benzenedicarboxylate]; 1190.4
CCCCCCCCCO; 828.5

Go through the list and state mass density for each entry.
1. CCCCCCCCCCO
2. CCCCCCCC/C=C\CCCCCCCCO [(Z)-9-octadecen-1-ol]
3. CCCCOC(=O)c1ccccc1C(=O)OCCCC [dibutyl phthalate]

1. 829.6
2. 849
3. 1047.1
